These measurements were taken from paper doi:10.1101/2024.12.01.626218.

TESTED_ON: T1, HisSUMO-TTF2 1-100 (mouse, UniProt Q5NC05 1-100)
T1 chain: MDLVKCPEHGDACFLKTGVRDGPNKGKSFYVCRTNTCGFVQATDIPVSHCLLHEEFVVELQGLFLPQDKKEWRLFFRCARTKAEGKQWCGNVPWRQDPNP
ASSAY_OVERVIEW: ITC; phosphorylated T325
Where no end group is shown, it is not given here. [ ]: non-standard residue; d: D form. pT = C[C@@H](OP(=O)(O)O)[C@H](N)C(=O)O
MEASUREMENT_LABEL: Kd

Entry FGDEIDLNTTFDVN[pT]PPTQ (not fully specified; printed as FGDEIDLNTTFDVN**T**PPTQ, mouse TRAIP; the CDK consensus (T followed by P) points to the 15th letter; also called phosphorylated peptide; source: synthetic peptide (Peptide & Elephants)) [peptide corresponding to mouse TRAIP 313-329 with phosphorylated T325] : reported Kd = ?
2300 nM
